Provenance of the data: ChEMBL document CHEMBL1131335

target: Somatostatin receptor; assay: Binding affinity was measured for SRIF receptor on AtT-20 mouse pituitary cells; format: cell-based; conditions: pituitary gland cell
Measured parameter: IC50 (µM)

Take a look at these entries with their results.
# Compound smiles, IC50 (µM)
measured = [
    ("CO[C@@H]1O[C@H](COCCCCCN)[C@@H](OCc2ccccc2)[C@H](OCc2ccccc2)[C@H]1OCc1ccccc1", 5.9),
    ("NCCCCCOC[C@H]1O[C@@H](OCCc2c[nH]c3ccccc23)[C@H](OCc2c[nH]cn2)C[C@@H]1OCc1ccccc1", 4.1),
    ("OCCCCCCNC[C@H]1O[C@@H](OCCc2c[nH]c3ccccc23)[C@H](OCc2ccccc2)C[C@@H]1OCc1ccccc1", 5.1),
]

a. OCCCCCNC[C@H]1O[C@@H](OCCc2c[nH]c3ccccc23)[C@H](OCc2ccccc2)[C@@H](OCc2ccccc2)[C@@H]1OCc1ccccc1
b. CO[C@@H]1O[C@H](COCCCCCN)[C@@H](OCc2ccccc2)[C@H](OCc2c[nH]cn2)[C@H]1OCc1ccccc1
c. NCCCCCOC[C@H]1O[C@@H](OCCc2c[nH]c3ccccc23)[C@H](OCc2ccccc2)C[C@@H]1OCc1ccccc1
d. NCCCCCOC[C@H]1O[C@@H](CCc2c[nH]c3ccccc23)[C@H](OCc2ccccc2)[C@@H](OCc2ccccc2)[C@@H]1OCc1ccccc1
Arrange the 4 molecules by rising IC50, starting with the smallest. Output spec: a listing of the labels in the requested order. b, c, a, d

1. NCCCCCCOC[C@H]1O[C@@H](OCCc2c[nH]c3ccccc23)[C@H](OCc2ccccc2)C[C@@H]1OCc1ccccc1
2. NCCCCCNC[C@H]1O[C@@H](OCCc2c[nH]c3ccccc23)[C@H](OCc2ccccc2)[C@@H](OCc2ccccc2)[C@@H]1OCc1ccccc1
Lower value of IC50 belongs to which: 1 or 2 ? Identify your pick by its label. 1
(1: 7 µM, 2: 13 µM)

* * *

biological target: Somatostatin receptor type 1 (Homo sapiens, UniProt P30872)
Sequence (P30872 whole entry): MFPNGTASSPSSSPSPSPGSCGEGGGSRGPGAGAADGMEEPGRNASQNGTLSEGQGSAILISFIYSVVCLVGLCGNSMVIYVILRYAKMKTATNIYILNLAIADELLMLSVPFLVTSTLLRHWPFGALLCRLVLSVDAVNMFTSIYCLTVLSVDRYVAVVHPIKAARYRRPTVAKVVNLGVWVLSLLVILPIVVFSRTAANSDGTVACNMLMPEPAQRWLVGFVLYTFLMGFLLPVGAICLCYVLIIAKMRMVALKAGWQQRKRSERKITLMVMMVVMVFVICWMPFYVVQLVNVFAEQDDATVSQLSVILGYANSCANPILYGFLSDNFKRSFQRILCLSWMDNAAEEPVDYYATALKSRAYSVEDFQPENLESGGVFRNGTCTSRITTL
Measured parameter: pKi
FYI, pKi means -log10 of a concentration in mol per litre.

Tell me reported pKi for `NCCCCCNC[C@H]1O[C@@H](OCCc2c[nH]c3ccccc23)[C@H](OCc2ccccc2)[C@@H](OCc2ccccc2)[C@@H]1OCc1ccccc1` , tested with Somatostatin receptor type 1 (Homo sapiens, UniProt P30872). 5.68

* * *

molecular target: Somatostatin receptor type 5 (Homo sapiens); experiment: Binding affinity for human receptor subtype hSSTR5.
Sequence (P35346 whole entry): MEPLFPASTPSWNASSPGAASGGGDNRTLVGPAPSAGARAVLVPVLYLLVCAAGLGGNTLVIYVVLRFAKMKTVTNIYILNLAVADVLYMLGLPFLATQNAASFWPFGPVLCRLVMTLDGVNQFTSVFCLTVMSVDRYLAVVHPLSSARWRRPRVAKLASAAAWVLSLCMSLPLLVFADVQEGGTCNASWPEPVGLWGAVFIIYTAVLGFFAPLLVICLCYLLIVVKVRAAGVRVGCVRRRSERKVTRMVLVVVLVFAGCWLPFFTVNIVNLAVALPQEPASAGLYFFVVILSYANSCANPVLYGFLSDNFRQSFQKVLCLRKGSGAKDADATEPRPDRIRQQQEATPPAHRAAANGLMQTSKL
Measured parameter: Ki (nM)
Kindly answer with a numeric value in nM, unit omitted.

# get_value(readout='Ki', item= `NCCCCCNC[C@H]1O[C@@H](OCCc2c[nH]c3ccccc23)[C@H](OCc2ccccc2)[C@@H](OCc2ccccc2)[C@@H]1OCc1ccccc1` ) 1300

* * *

molecular target: Somatostatin receptor type 2 (Homo sapiens, UniProt P30874)
Sequence (P30874 whole entry): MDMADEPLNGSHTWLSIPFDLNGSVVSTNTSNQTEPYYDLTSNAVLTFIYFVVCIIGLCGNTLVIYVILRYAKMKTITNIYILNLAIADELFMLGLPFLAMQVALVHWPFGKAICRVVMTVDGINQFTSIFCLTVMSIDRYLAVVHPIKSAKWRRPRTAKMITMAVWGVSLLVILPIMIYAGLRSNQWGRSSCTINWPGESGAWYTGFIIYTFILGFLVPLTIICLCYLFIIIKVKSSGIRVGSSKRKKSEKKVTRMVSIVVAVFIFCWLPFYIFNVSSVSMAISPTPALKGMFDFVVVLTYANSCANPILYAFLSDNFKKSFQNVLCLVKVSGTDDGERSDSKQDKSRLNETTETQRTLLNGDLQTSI
Measured parameter: pKi
FYI, pKi means -log10 of a concentration in mol per litre.

# get_value(readout='pKi', item= `NCCCCCNC[C@H]1O[C@@H](OCCc2c[nH]c3ccccc23)[C@H](OCc2ccccc2)[C@@H](OCc2ccccc2)[C@@H]1OCc1ccccc1` ) 6.22
